Test system: RSV (Long)
Test: RSV cytopathic effect (CPE)-based viral replication assay
Format: cell-based, respiratory syncytial virus (RSV)
Details: human respiratory syncytial virus, HEp-2, 72 h, HEp-2 cells infected with RSV Long at MOI 0.015; 3 days at 37° C.; cell viability by CellTiter-Glo luminescence; read-out: EC50 (nm)
Class boundaries, taken from values of EC50, are as follows: Low = under 6 nM, Medium = from 6 nM up to 10 nM, High = 10 nM and over

INSERT INTO assay_data (molecule, tested_target, category) VALUES
  ('NC(=O)c1ccc(-c2c(CN3C(=O)C4(CCN(C(=O)[C@@H]5CCCN5)CC4)c4ccncc43)ncc3ccccc23)cn1', 'RSV (Long)', 'High'),
  ('COC(=O)N1CCC2(CC1)C(=O)N(Cc1ncc3ccccc3c1CCCCO)c1cnccc12 [Example 21b]', 'RSV (Long)', 'Medium'),
  ('O=c1n(Cc2ncc3cc(Cl)ccc3c2CCCCO)c2cnccc2n1C1CC1 [Example 19b]', 'RSV (Long)', 'High'),
  ('NC(=O)c1ccc(-c2c(CN3C(=O)C4(CN(C(=O)C5(N)CC5)C4)c4ccccc43)ncc3ccccc23)cn1', 'RSV (Long)', 'High'),
  ('NC(=O)c1ccc(-c2c(CN3C(=O)C4(CCN(C(=O)[C@@H](N)CO)CC4)c4ccncc43)ncc3ccccc23)cn1', 'RSV (Long)', 'Low'),
  ('CC1(n2c(=O)n(Cc3ncc4ccccc4c3-c3ccc(C4(N)CC4)nc3)c3cnccc32)CC1', 'RSV (Long)', 'Medium'),
  ('NC1(C(=O)N2CCC3(CC2)C(=O)N(Cc2ncc4ccccc4c2-c2cncs2)c2cnccc23)CC1', 'RSV (Long)', 'Medium'),
  ('COC(=O)N1CCC(n2c(=O)n(Cc3ncc4cccc(F)c4c3CCCCO)c3cnccc32)CC1', 'RSV (Long)', 'High'),
  ('NC1(CC(=O)N2CC3(C2)C(=O)N(Cc2ncc4ccccc4c2-c2cccnc2)c2ccccc23)CC1', 'RSV (Long)', 'High'),
  ('COC(=O)N1CC2(C1)C(=O)N(Cc1ncc3ccccc3c1-c1ccncc1)c1ccccc12', 'RSV (Long)', 'Low'),
  ('CS(=O)(=O)N1CC2(C1)C(=O)N(Cc1ncc3ccccc3c1-c1ccc(F)cc1)c1ccccc12', 'RSV (Long)', 'Low'),
  ('O=c1n(Cc2ncc3ccccc3c2CCCCO)c2cnccc2n1C1CC1', 'RSV (Long)', 'High'),
  ('COC(=O)N1CCC(n2c(=O)n(Cc3ncc4ccccc4c3CCCCO)c3cc(F)c(F)cc32)CC1 [Example 14c]', 'RSV (Long)', 'High'),
  ('CS(=O)(=O)N1CC2(C1)C(=O)N(Cc1ncc3ccccc3c1-c1cccnc1)c1ccccc12', 'RSV (Long)', 'Low'),
  ('O=C1N(Cc2ncc3ccccc3c2-c2ccc(F)nc2)c2ccccc2C12CN(CCF)C2', 'RSV (Long)', 'High'),
  ('NC1(C(=O)N2CCC3(CC2)C(=O)N(Cc2ncc4ccccc4c2-c2cnc(C(F)(F)F)s2)c2cnccc23)CC1', 'RSV (Long)', 'High'),
  ('O=c1n(Cc2ncc3ccccc3c2CCCCO)c2ccccc2n1CC(F)(F)F', 'RSV (Long)', 'High'),
  ('NC(=O)c1ccc(-c2c(CN3C(=O)C4(CCN(C(=O)C(N)C(F)(F)F)CC4)c4ccncc43)ncc3ccccc23)cn1 (stereo not drawn)', 'RSV (Long)', 'Low'),
  ('CS(=O)(=O)N1CCC2(CC1)C(=O)N(Cc1ncc3ccccc3c1-c1ccncc1)c1cnccc12', 'RSV (Long)', 'Low'),
  ('CS(=O)(=O)N1CCC2(CC1)C(=O)N(Cc1ncc3cc(F)ccc3c1-c1ccncc1)c1cnccc12', 'RSV (Long)', 'Low'),
  ('COC(=O)N1CC2(C1)C(=O)N(Cc1ncc3ccccc3c1-c1ccc(C(N)C(F)(F)F)nc1)c1ccccc12 (stereo not drawn) [Example 157b]', 'RSV (Long)', 'Low'),
  ('COCCN1CC2(C1)C(=O)N(Cc1ncc3ccccc3c1-c1ccc(F)nc1)c1ccccc12 [Example 85c]', 'RSV (Long)', 'High'),
  ('COC(=O)N1CC2(C1)C(=O)N(Cc1ncc3cc(Cl)ccc3c1-c1cccnc1)c1cnccc12 [Example 161c]', 'RSV (Long)', 'Low'),
  ('COC(=O)N1CCC2(CC1)C(=O)N(Cc1ncc3ccccc3c1CCCS(C)(=O)=O)c1cnccc12 [Example 11c]', 'RSV (Long)', 'High'),
  ('NC(=O)c1ccc(-c2c(CN3C(=O)C4(CCN(C(=O)[C@H]5CCCN5)CC4)c4ccncc43)ncc3ccccc23)cn1', 'RSV (Long)', 'Medium'),
  ('CNC1(C(=O)N2CCC3(CC2)C(=O)N(Cc2ncc4ccccc4c2-c2ccc(C(=O)NC4CC4)nc2)c2cnccc23)CC1', 'RSV (Long)', 'Low');
